Biological target: T1, human BCMA (human, UniProt Q02223 1-184)
T1 construct: whole, on cells; the cell line is named under assay; also called TNFRSF17; CD269
T1 sequence (looked up): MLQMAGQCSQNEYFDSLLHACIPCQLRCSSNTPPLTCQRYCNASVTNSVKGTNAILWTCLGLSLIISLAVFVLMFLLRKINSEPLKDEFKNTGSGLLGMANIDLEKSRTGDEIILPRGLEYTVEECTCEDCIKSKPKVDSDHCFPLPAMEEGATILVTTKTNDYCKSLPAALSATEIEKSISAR
Test: flow cytometry, NCI-H929 cells, Flag-tagged VH single domain, anti-tag secondary antibody
pEC50: −log10 of the molar value.
quantity measured: pEC50

binder | value reported
PR004561, PR001046 VH-derived single-domain variant 1046-R2-10H1 (VHH, Tested as VH single domain with Flag and His tags; not shown: Flag and His tags) VHH: EVQLVETGGGLIQPGGSLRLSCAASGFTVSDSYMTWVRQAPGKGLEWVSVIFSGGNTYYADSVKGRFTISRDNAKNTLYLQMNSLRAEDTALYYCARRNYDQTLGTDVFDIWGQGTMVTVSS | 8.36
PR004574, PR001046 VH-derived single-domain variant 1046-R2-9E5 (VHH, Tested as VH single domain with Flag and His tags; not shown: Flag and His tags) VHH: EVQLVETGGGLIQPGGSLRLSCAASGFTVSDAYMTWVRQAPGKGLEWVSVIFSGGRTYYSDSVKGRFTISRDNAKNTLYLQMNSLRAEDTALYYCARRNYDQTRGTDVFDIWGQGTMVTVSS | 8.54

Sourced from patent US20230322953A1
